- System: U2OS
- experimentalProtocol: Multiplex assay against U2OS
- Assay type: toxicity, cell-based
- recordedConditions: human, 24 h, 10 µM, compound concentration 10 uM, replicate 2

{"compound": "Cc1onc(-c2ccccc2Cl)c1C(=O)N(C)c1ccc(Cl)cc1", "experimentalTarget": "U2OS", "Population Mitotic Cells (%)": "35%"}
{"compound": "Cc1c(CC(=O)O)c2cccnc2n1Cc1ccc(S(C)(=O)=O)cc1C(F)(F)F", "experimentalTarget": "U2OS", "Population Mitotic Cells (%)": "0%"}
{"compound": "COC[C@@H](c1ccc(C(F)(F)F)cc1)N1CCN(C2(C)CCN(C(=O)c3c(C)ncnc3C)CC2)C[C@@H]1C.O=C(O)/C=C\\C(=O)O [VICRIVIROC MALEATE]", "experimentalTarget": "U2OS", "Population Mitotic Cells (%)": "16%"}
{"compound": "CC(C)c1noc(N2CCC(COc3ccc(-c4ccc(S(C)(=O)=O)cc4)nc3)CC2)n1", "experimentalTarget": "U2OS", "Population Mitotic Cells (%)": "33%"}
{"compound": "COc1ccccc1N1CCN(C[C@@H](C(=O)NC(C)(C)C)c2ccccc2)CC1.Cl.Cl", "experimentalTarget": "U2OS", "Population Mitotic Cells (%)": "29%"}
{"compound": "NCCc1cn(S(=O)(=O)c2c(Cl)nc3sccn23)c2ccccc12.O=C(O)C(=O)O", "experimentalTarget": "U2OS", "Population Mitotic Cells (%)": "13%"}
{"compound": "Cl.NCCc1ccc(O)c(O)c1 [DOPAMINE HYDROCHLORIDE]", "experimentalTarget": "U2OS", "Population Mitotic Cells (%)": "12%"}
{"compound": "CC[C@@H](C)Nc1nc(C)nc2c(-c3ccc(OC)nc3C)c(C)nn12", "experimentalTarget": "U2OS", "Population Mitotic Cells (%)": "7%"}

// data source = ChEMBL document CHEMBL5058577
